- test_details: Stability of 1E7-03 in cell culture media and PBS
- Assay type: physicochemical
- run_parameters: PBS with 10% bovine serum albumin; 4 hrs; read-out: % remaining intact in PBS with 10% BSA
property_name: remaining at 4 h, 10 µM (%)
Answers are plain numbers, in %.

Incoming: Bench note: what remaining at 4 h, 10 µM did CCNC(=O)NC(=O)C(C)OC(=O)c1c2c(nc3ccccc13)/C(=C/c1ccc(OC)c(OC)c1)CC2 (stereo not shown) show?
Outgoing: 75

====

Exercise: for every item that follows, state its recorded Tmax.
- test_details: Pharmacokinetic analysis in mice after i.p. injection
- Format: in vivo
- run_parameters: male, BALB/cJ, mouse, plasma, ip, 100 mg/kg, mouse plasma after i.p. 100 mg/kg DP1-07; parent and products DP1-07P1, DP1-07P2
Answers are plain numbers, in h.

COc1ccc(/C=C2\CCCc3c2nc2ccccc2c3C(=O)OC(C)C(=O)O)cc1OC (stereo not drawn) : 6

Incoming: Requested read-out: Tmax. Entry: `COc1ccc(/C=C2\CCCc3c2nc2ccccc2c3C(=O)O)cc1OC`
Outgoing: 6
